These entries and their values trace back to PubChem BioAssay (NCI).

Test: NCI Yeast Anticancer Drug Screen. Data for the bub3 strain (AID 167)
Details: S. cerevisiae bub3 mutant strain, at 50.0 µM, active compounds read high
The panel holds about 79,000 compounds, 15% with a hit somewhere; the sample as a whole holds those more often.
MEASUREMENT_KIND: growth inhibition (%)
Answer with a number only, understood to be in %.

MOLECULE | SCALE_UNIT | growth inhibition
CN(c1ccccc1)S(=O)(=O)c1ccc(Cl)cc1 | % | 43.2
O=P(CCc1ccccc1)(OCCCl)OCCCl | % | 6.5
Cc1ccc(S(=O)(=O)N2CCC(N)=N2)cc1 | % | 0.45
COC(=O)c1c(-c2ccccc2)cc2c3cc(-c4ccccc4)c(C(=O)OC)n3c3ccccc3n12 | % | -1.95
CC(=O)OC(C)c1cc2c(s1)C(=O)c1scc(C(C)OC(C)=O)c1C2=O (configuration not stated) | % | 91.7

Q: Query (molecule): O=C1C(N=Nc2ccc(Br)cc2)Sc2nc3ccccc3n21 (configuration not stated) ; field requested: growth inhibition
Ans: 17.1

Q: Value lookup for growth inhibition; key = CC#CC(O)(C(=O)OC1CCC2CCC1N2C)C1CCCC1 (configuration not stated)
Ans: -3.4

Q: // lookup growth inhibition for CC(C)CC1NC(=O)OC1=O (configuration not stated)
Ans: 1.25

Q: So what does the record say about growth inhibition for O=C1CCCC(C(Sc2ccccc2)(Sc2ccccc2)Sc2ccccc2)C1 (configuration not stated) ?
Ans: 21.9

Q: # lookup: growth inhibition of CCOc1ccc2nc(NC(=O)CC(C)=O)sc2c1
Ans: -17.9

* * *

Assay: NCI Yeast Anticancer Drug Screen. Data for the mec2-1 strain (AID 157)
Details: S. cerevisiae mec2-1 strain, at 50.0 µM, active compounds read high
About 79,000 compounds went through this panel and 15% of them were active in at least one assay; those are over-represented in the sample as a whole.
Attribute: growth inhibition
Quick note: give the figure in %, leave out the unit.

COMPOUND | growth inhibition / %
NNC(N)=Nc1cccc2ccccc12 | -7.5
O=C1c2c(-c3ccccc3)ccc(-c3ccccc3)c2C2(O)OC1(O)c1c(-c3ccccc3)ccc(-c3ccccc3)c1C2=O | 4.95
O=C1NC(Cc2ccc(O)cc2)C(=O)N2CCCC12 (configuration not stated) | -3
Cc1cc2c(=O)c3ccc(Cl)cc3[nH]c2c(C(N)=O)c1C | 7.4
CC(=O)OCc1ccc(Cl)cc1Cl | -2.9
O=C1C(N=Nc2ccc(Br)cc2)Sc2nc3ccccc3n21 (configuration not stated) | -12.4
Cc1cc2nc(N3CCOCC3)n(C3OC(CO)C(O)C3O)c2cc1C (configuration not stated) | 5.75
CCOC(=O)C(C)c1nc2cc(N3CCOCC3)c(F)cc2[nH]c1=O (configuration not stated) | -7.55

Q: Quick check: growth inhibition of CC(=O)NNC(=S)/N=C\c1c(O)[nH]c(=O)[nH]c1=O ?
Ans: -30.1

Q: Please report the recorded growth inhibition for N#CCCOCc1ccccc1 .
Ans: -23.8

Q: For O=C1C(c2ccccc2)=C(c2ccccc2)c2ccccc21 , what is its reported growth inhibition?
Ans: 19.6

Q: Look up growth inhibition: C=CCOC(=O)NCC(=O)NC(C)C(N)=O (configuration not stated)
Ans: -14.2

* * *

Experiment: NCI Yeast Anticancer Drug Screen. Data for the mec2-1 strain (AID 157)
Conditions: S. cerevisiae mec2-1 strain, at 50.0 µM
Compounds without any hit were thinned out: in the full panel of roughly 79,000, 15% have a hit. Calls of active or inactive are those of the source. Rule as the data show it: active = growth inhibition above about 70%; inactive = the rest. Where a SMILES comes first, the peptide text is derived from it. [ ]: non-standard residue; d: D form. ΔPro = O=C(O)[CH]1C=CCN1
Choose one outcome from this list and give only that: active, inactive

As a guide, the following entries are already answered.
COMPOUND | LABEL_CLASS
CCOC(=O)CCC(C)=O | inactive
CCOC(=O)/C=C/C=C(\OCC)C1CCC2C3CC=C4CC(OC(C)=O)CCC4(C)C3CCC12C (centres undefined) | inactive
CC(=O)OC[C@@H](COC(=O)/C=C/c1ccc(O)cc1)OC1OC(CO)C(O)C(O)C1O (some centres undefined) | inactive
CC(C(=O)c1ccccc1)C(=O)c1ccccc1 | inactive

Q: Hi, do you know how Cc1ccccc1I came out in this test?
Ans: inactive

Q: Give the logged outcome of this assay for the following compound: O=[N+]([O-])c1cc(Cl)cc2c1-c1c(Cl)cc(Cl)cc1C2
Ans: inactive

Q: What did this assay record as the result for O=C(O)C1C=CCN1C(=O)C1C=CCN1C(=O)C1C=CCN1 (centres undefined) (H-[ΔPro]-[ΔPro]-[ΔPro]-OH; configuration not given here) ?
Ans: inactive

Q: Outcome? Cc1ccc(O)c(C2CC(C#N)CCN2C)c1 (centres undefined)
Ans: inactive

Q: Lab log entry: NC(N)=NOCC(=O)O — outcome as called in the assay?
Ans: inactive

Q: Recorded call for CSc1ccc(NC(=O)N(Cc2ccccc2)c2ccccc2)cc1 ?
Ans: inactive

Q: Lab log entry: CC(=O)OC(C)c1cc2c(s1)C(=O)c1scc(C(C)OC(C)=O)c1C2=O (centres undefined) — outcome as called in the assay?
Ans: active

Q: For this compound, state the assay outcome: COC(=O)C1[C@@H](C(=O)OC)C12C=Cc1ccccc1C=C2 (some centres undefined)
Ans: inactive

Q: # lookup: test call for CCOC(=O)C1=C(C)NC(=O)NC1c1cccc(OC)c1O (centres undefined)
Ans: inactive

Q: What is the recorded call for this compound in the test? CCCCCCC1NC(=S)N(c2ccccc2)C1=O (centres undefined)
Ans: inactive

Q: Hey, what did the test say about O=C(O)CC1CC2CC(=O)C1C2 (centres undefined) ?
Ans: inactive

Q: Name the outcome recorded for CC(=O)OC(C)C(=O)OCC1OC(OC(=O)C(C)OC(C)=O)C(OC(=O)C(C)OC(C)=O)C(OC(=O)C(C)OC(C)=O)C1OC(=O)C(C)OC(C)=O (centres undefined) in the assay.
Ans: inactive

Q: Entry CC(N=C(N)N)C(=O)O (centres undefined) : call = ?
Ans: inactive

Q: I would be grateful if you could indicate the recorded call for Nc1nc2ncc(CCCNc3ccc(C(=O)NC(CCC(=O)O)C(=O)O)cc3)nc2c(=O)[nH]1 (centres undefined) .
Ans: inactive

Q: Hey, what did the test say about CCOC(=O)c1c(NN)n[nH]c1C ?
Ans: inactive

Q: Fill in: this test's call for CCCCCNC(=O)c1ccc(C)cc1 is ___
Ans: inactive

Q: So what was the verdict on CC1(C)OS(=O)(=O)C=C1Br in this test?
Ans: inactive

Q: For this compound, state the assay outcome: CCc1cccc(CC)c1NC(=O)c1ccc(C)cc1
Ans: inactive

Q: For CC(C)Cc1cnc(CC(C)C)c(=O)[nH]1 , what call appears in the results of this test?
Ans: inactive

Q: Recorded test outcome, item O=C(OCC1OC(OCc2ccccc2)C(OC(=O)c2ccccc2)C1OC(=O)c1ccccc1)c1ccccc1 (centres undefined)
Ans: inactive

* * *

Assay: NCI Yeast Anticancer Drug Screen. Data for the rad50 strain (AID 155);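 further: 0% = growth of vehicle-only cultures of the same strain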
Conditions: S. cerevisiae rad50 strain growth inhibition; at 50.0 µM; active compounds read high
This is part of a sample that, as a whole, favours compounds with a hit. Of some 79,000 tested, about 15% had one in any assay. The source made the active and inactive calls. Rule as the data show it: active = growth inhibition above about 70%; inactive = the rest.
Quick list: growth inhibition per entry.

The examples below pair each entry with its known result.
COMPOUND | growth inhibition
CC1(C)N=C(N)N=C(N)N1CCCCc1ccccc1 | -23.7% (inactive)
C=CCOc1ccccc1C | -21.9% (inactive)
N#CC(=C1C=CC(=NOC(=O)c2ccccc2)C=C1)c1ccccc1 | -0.75% (inactive)
Cc1ccc2nnc(NS(=O)(=O)c3cc(C)c(Cl)cc3S)n2n1 | -30.3% (inactive)
CC1(C)OC(=O)C=C([O-])O1.CC1(C)OC(=O)C=C([O-])O1.O=c1c(O)c(-c2ccc([O-])cc2[O-])oc2cc(O)cc(O)c12.[Ti+4] | -45.6% (inactive)
COc1ccccc1CC(C)N1CCCC1c1ccccc1 (stereo not drawn) | -12.1% (inactive)
CC(=O)c1cnn(C(N)=O)c1C | -42.6% (inactive)
CN1c2ccccc2C(=O)NC12CCN(Cc1ccccc1)CC2 | -30.2% (inactive)
NC(CSc1nc2ccccn2c1[N+](=O)[O-])C(=O)O (stereo not drawn) | -26.1% (inactive)
CN(NC(=O)CCCl)C1=NCCCCN1 | -6.6% (inactive)

Q: Bench note: what growth inhibition did O=C1c2ccccc2-c2nnsc21 show?
Ans: -20.7% (inactive)

Q: Please look up its growth inhibition: C[N+]1(CC[N+]2(C)CCCC2c2cccnc2)CCCC1c1cccnc1 (stereo not drawn)
Ans: 6.15% (inactive)

Q: Entry under review: COc1ccc(/C=C/c2ccc3ccccc3[n+]2C)cc1OC . Reported growth inhibition?
Ans: 32% (inactive)
